# Tested on: HEK-293T
# Test Details: Incucyte cell viability with HEK293T; also: unitless GR value; below 1 slowed growth and below 0 cell loss
# Type: toxicity, cell-based
# Condition: human, 12 h, 10 µM, compound concentration 10 uM, replicate number 2
Attribute Measured: Growth Rate
Lab note: record just the number, no unit beside it.

INSERT INTO measurements (compound, recorded_number) VALUES
  ('CN1CCC(F)(Cn2cnc(-c3ccc(F)cn3)c2-c2ccnc3[nH]ccc23)CC1', 0.86),
  ('CN1CCN(c2ccnc(NCCc3ccccc3)n2)CC1 [TP-040n]', 0.3),
  ('CCO[C@@H](Cc1ccc(OCCc2ccc(OS(C)(=O)=O)cc2)cc1)C(=O)O [TESAGLITAZAR]', 0.68);

Here is another compound to look at.
QUERY: Which measured Growth Rate value corresponds to "CC(C)(O)CNC(=O)N1C(=O)N(c2cccc(C(F)(F)F)c2)C2=C(C(=O)CC2)[C@@H]1c1ccc(C#N)cc1" ?
RESULT: 0.97

---

# Tested on: Fibroblast
# Test Details: Incucyte cell viability with human fibroblast; also: unitless GR value; below 1 slowed growth and below 0 cell loss
# Type: toxicity, cell-based
# Condition: 6 h, 10 µM, compound concentration 10 uM, replicate number 2
Attribute Measured: Growth Rate
// no unit, no text: just the number

INSERT INTO assay_data (compound, recorded_number) VALUES
  ('CC[C@H](Nc1ncnc2[nH]cnc12)c1nc2cccc(F)c2c(=O)n1-c1ccccc1 [IDELALISIB]', 0.25);

QUERY: Entry under review: "CC(C)Oc1ccc(Cc2ccc(NC3=NCCN3)cc2)cc1" . Reported Growth Rate?
RESULT: 0

QUERY: Which value of Growth Rate has been reported for "CN(C)c1ccc(-c2cc3ncccc3c(OCCCCO)n2)cc1.O=C(O)C(F)(F)F" in the records?
RESULT: 0.29

QUERY: Which measured Growth Rate value corresponds to "Cc1nnsc1C(=O)Nc1ccc(-n2nc(C(F)(F)F)cc2C(F)(F)F)cc1" ?
RESULT: -0.36

QUERY: Give the measured Growth Rate of "Cl.Clc1ccc(OC[C@H]2CCN2)cn1" .
RESULT: -0.05

QUERY: // lookup Growth Rate for "CN(C)[C@H]1CCN(c2cc(C(F)(F)F)c(C#N)c(Nc3cccc(CCC(=O)O)c3)n2)C1.O=C(O)C(F)(F)F"
RESULT: -0.53

---

# Test system: HEK-293T
# Test Details: Incucyte cell viability with HEK293T; also: unitless GR value; below 1 slowed growth and below 0 cell loss
# Assay type: toxicity, cell-based
# Condition: human, 12 h, 10 µM, compound concentration 10 uM, replicate number 2
Attribute Measured: Growth Rate
# print the numeric value only

INSERT INTO assay_data (compound, recorded_number) VALUES
  ('O=C(N[C@H]1CN2CCC1CC2)c1ccc(Cl)cc1 [PNU-282987]', 0.94);

QUERY: Could you share which Growth Rate value was measured for CC/C(=C(\c1ccccc1)c1ccc(OCCN(C)C)cc1)c1ccccc1.O=C(O)CC(O)(CC(=O)O)C(=O)O [TAMOXIFEN CITRATE] ?
RESULT: 0.48

QUERY: What measured Growth Rate goes with CC(Oc1cc(-c2cnn(C3CCNCC3)c2)cnc1N)c1c(Cl)ccc(F)c1Cl (centres undefined) ?
RESULT: -0.35

QUERY: Recorded Growth Rate for CC(=O)N1CCC(c2ccc(C(=O)NC(=N)N)cc2C(F)(F)F)CC1 [BI 9627] , please?
RESULT: 0.65
